Target: ZFP SBS#1385 (synthetic)
Sequence (chain, as listed by the source): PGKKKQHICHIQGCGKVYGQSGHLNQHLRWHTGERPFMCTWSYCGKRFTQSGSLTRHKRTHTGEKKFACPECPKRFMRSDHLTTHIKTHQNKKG
Test: EMSA
Settings: tags: MBP fusion
pKd: −log10 of the molar value.

{"columns": ["binder", "pKd"],
 "data": [
  ["TGGGCAAGA (dsDNA) DNA 1: TGGGCAAGA DNA 2: TCTTGCCCA", 9.64]
]}
